The values you see were collected from paper PMC10477861.

- Tested on: MCF7
- assay overview: MTT primary screening of anticancer activity, MCF7
- Format: cell-based
- settings: 25 µM pACP, 24 h, maintenance medium 1% FBS, ratio of viability to vehicle (PBS), at least three technical repetitions
recorded metric: Survival rate of cancer cells in primary screening

{"residue string": "CRLCTHGNVSACVLGKNAVFSVSAHNSDCPQPTCDFSSPLEECLESS [pACP177]", "assay result": 1.00}
{"residue string": "GWKKSQCCRNGFYRERGQQQAKNFMSQESFPVRENGE [pACP602]", "assay result": 0.77}
{"residue string": "YSYGYVISSCKKAGGGYAIRYVALHYVQGTKEGGGRQ [pACP2344]", "assay result": 1.00}
{"residue string": "HPGCRKAPGCLCTGVIPSAAIPGTGFEIGGAGCFPLALNCNCATLGKV [pACP631]", "assay result": 1.00}
{"residue string": "IPNKKAGSRCLSKKCLLPAKRAFEIHFLTQLTGDIKGI [pACP766]", "assay result": 0.59}

----------
Here, each record is paired with measured Survival rate of cancer cells in primary screening data.
- Tested on: BT474
- assay overview: MTT primary screening of anticancer activity, BT474
- Assay type: cell-based
- settings: 25 µM pACP, 24 h, maintenance medium 1% FBS, ratio of viability to vehicle (PBS), at least three technical repetitions
Where no end group is shown, it is not given here.
recorded metric: Survival rate of cancer cells in primary screening

{"residue string": "HPGCRKAPGCLCTGVIPSAAIPGTGFEIGGAGCFPLALNCNCATLGKV [pACP631]", "study system": "BT474", "assay result": 1.00}
{"residue string": "RCPCKGNTHRRYSIMFCNFDCASLLKLLCGFFGKC [pACP1621]", "study system": "BT474", "assay result": 1.00}
{"residue string": "WWRRAERSVRRFFGTPIGPFPEIFGRRKAHKKKIIAKFDSVNG [pACP2283]", "study system": "BT474", "assay result": 0.02}
{"residue string": "GNPAKQEIKVPGALGKGSCVQSGAGVGPRCRVPCGPLSGGMALFCYE [pACP555]", "study system": "BT474", "assay result": 1.00}
{"residue string": "KFCSSFFKSLQFPKAETLVGFKGKALKISNVLIKKSPIIK [pACP860]", "study system": "BT474", "assay result": 0.70}
{"residue string": "IPNKKAGSRCLSKKCLLPAKRAFEIHFLTQLTGDIKGI [pACP766]", "study system": "BT474", "assay result": 0.71}
{"residue string": "YSYGYVISSCKKAGGGYAIRYVALHYVQGTKEGGGRQ [pACP2344]", "study system": "BT474", "assay result": 0.68}
{"residue string": "RPITNVGGFLEVNGKGVKPLHGNKFKCTVSGSFLASGWFTLELERVL [pACP1757]", "study system": "BT474", "assay result": 1.00}
{"residue string": "RLRPVILCKKRRLAAGRKKVGRQKKRKASAEGKEGRSPKKKKDGCW [pACP1739]", "study system": "BT474", "assay result": 0.21}
{"residue string": "LLSDFRQYRTKIVRQMRRQIFRQMKQKAE [pACP1210]", "study system": "BT474", "assay result": 1.00}

----------
- Tested on: MDA-MB-453
- assay overview: MTT primary screening of anticancer activity, MDA-MB-453
- Format: cell-based
- settings: 25 µM pACP, 24 h, maintenance medium 1% FBS, ratio of viability to vehicle (PBS), at least three technical repetitions
recorded metric: Survival rate of cancer cells in primary screening

{"residue string": "RLIVRMKTLYEKAAQMEIKIVENRFTRHEKKNKINRIKRKREK [pACP1722]", "assay result": 0.11}
{"residue string": "LLSDFRQYRTKIVRQMRRQIFRQMKQKAE [pACP1210]", "assay result": 1.00}
{"residue string": "DRGERVAHGLDLLDGVVAEGVAAKGDDNTIGLAKRLRHCWNPFCKRPTTH [pACP253]", "assay result": 1.00}
{"residue string": "GWKKSQCCRNGFYRERGQQQAKNFMSQESFPVRENGE [pACP602]", "assay result": 1.00}
{"residue string": "IPNKKAGSRCLSKKCLLPAKRAFEIHFLTQLTGDIKGI [pACP766]", "assay result": 1.00}
{"residue string": "CRLCTHGNVSACVLGKNAVFSVSAHNSDCPQPTCDFSSPLEECLESS [pACP177]", "assay result": 1.00}
{"residue string": "NFWLSTLTGHGFCAVVSAARAGS [pACP1292]", "assay result": 1.00}
{"residue string": "ERRVGYSWYGTWGNKVLKKYPEWLRRLTEKK [pACP341]", "assay result": 1.00}
{"residue string": "RLRPVILCKKRRLAAGRKKVGRQKKRKASAEGKEGRSPKKKKDGCW [pACP1739]", "assay result": 0.18}
{"residue string": "LARPDAAPKKQLRRPLRFRQPEWRRISKIHHIPRRFRRA [pACP1156]", "assay result": 1.00}

----------
Survival rate of cancer cells in primary screening values for the sequences below.
- Test system: MCF7
- assay overview: MTT primary screening of anticancer activity, MCF7
- Format: cell-based
- settings: 25 µM pACP, 24 h, maintenance medium 1% FBS, ratio of viability to vehicle (PBS), at least three technical repetitions
Where no end group is shown, it is not given here.
recorded metric: Survival rate of cancer cells in primary screening

{"residue string": "KFCSSFFKSLQFPKAETLVGFKGKALKISNVLIKKSPIIK [pACP860]", "study system": "MCF7", "assay result": 0.78}
{"residue string": "AAGVSIEIHISLTLFTQVKCVARSQCAAEGAGLRHIKVAALQSCSRRRAH [pACP2]", "study system": "MCF7", "assay result": 1.00}
{"residue string": "NQRKRTACDRRRSICDERIAAGICKRNFRCKKYLKINGTIGLSIRLGKLG [pACP1381]", "study system": "MCF7", "assay result": 1.00}
{"residue string": "YRKCDTAGGLSKLCVAEKDIKIIWKYGGR [pACP2334]", "study system": "MCF7", "assay result": 1.00}
{"residue string": "VAHGLDLLDGVVAEGVAAKGDDNTIGLAKRLRHCWNPFCKRPTTH [pACP2160]", "study system": "MCF7", "assay result": 1.00}
{"residue string": "KSLQMVLSFVIIFADKKKTLATLIVAKKKKGW [pACP1096]", "study system": "MCF7", "assay result": 1.00}
{"residue string": "ERRVGYSWYGTWGNKVLKKYPEWLRRLTEKK [pACP341]", "study system": "MCF7", "assay result": 0.66}
{"residue string": "RCPCKGNTHRRYSIMFCNFDCASLLKLLCGFFGKC [pACP1621]", "study system": "MCF7", "assay result": 1.00}
{"residue string": "RRFAWIGKLQSRKVRNNIRQYRTKIVRQMRRQIFRQMKQKAE [pACP1780]", "study system": "MCF7", "assay result": 0.0113}
{"residue string": "IYRKGTCADCAQGGVCTGHCSNKKTCAALKGVDKIAEDLGRGIK [pACP822]", "study system": "MCF7", "assay result": 0.78}
{"residue string": "YCIFFLDKGFPGILADFLCLAGKRTIKLKALKQLIRQQVY [pACP2286]", "study system": "MCF7", "assay result": 0.76}
{"residue string": "KGVRGKICKGKRCKQISNSGCDRQEIQEKQENRYRKEKQNKG [pACP886]", "study system": "MCF7", "assay result": 1.00}
{"residue string": "LARPDAAPKKQLRRPLRFRQPEWRRISKIHHIPRRFRRA [pACP1156]", "study system": "MCF7", "assay result": 1.00}
{"residue string": "DRGERVAHGLDLLDGVVAEGVAAKGDDNTIGLAKRLRHCWNPFCKRPTTH [pACP253]", "study system": "MCF7", "assay result": 1.00}
{"residue string": "GVPMGSVIKKRRKRMAKKKHRKLLRKTRHQRRNKK [pACP593]", "study system": "MCF7", "assay result": 1.00}
{"residue string": "SCRNGKGISSGDRPGKAKTGISLEIGKCSYRNKGKSAENSSVAVV [pACP1869]", "study system": "MCF7", "assay result": 1.00}
{"residue string": "RLIVRMKTLYEKAAQMEIKIVENRFTRHEKKNKINRIKRKREK [pACP1722]", "study system": "MCF7", "assay result": 0.31}
{"residue string": "WWRRAERSVRRFFGTPIGPFPEIFGRRKAHKKKIIAKFDSVNG [pACP2283]", "study system": "MCF7", "assay result": 0.0549}
{"residue string": "RVYKFVDMIGEIGHGRENHIGSGFDERLCRNGACVDCYGKYLCCRTGDYP [pACP1836]", "study system": "MCF7", "assay result": 1.00}
{"residue string": "RPITNVGGFLEVNGKGVKPLHGNKFKCTVSGSFLASGWFTLELERVL [pACP1757]", "study system": "MCF7", "assay result": 1.00}
{"residue string": "GLTSESVKSRCVKCLLYIKKSGATHDDNALHRTYCRNNCYRL [pACP550]", "study system": "MCF7", "assay result": 1.00}
{"residue string": "LLSDFRQYRTKIVRQMRRQIFRQMKQKAE [pACP1210]", "study system": "MCF7", "assay result": 0.79}
{"residue string": "DSYGNRTEIERKIWRRYPCGYSCGTGEVKCDKEEWKKEYW [pACP264]", "study system": "MCF7", "assay result": 0.72}
{"residue string": "PPSTRIISKVYPFKKHARGGWAIPGMMCSQMVER [pACP1472]", "study system": "MCF7", "assay result": 1.00}
{"residue string": "PVCRKEKKDGKRCVARYVEHFAGKDRRMQA [pACP1505]", "study system": "MCF7", "assay result": 1.00}
{"residue string": "RLRPVILCKKRRLAAGRKKVGRQKKRKASAEGKEGRSPKKKKDGCW [pACP1739]", "study system": "MCF7", "assay result": 0.28}
{"residue string": "QESDAKKYGVGGYFQGLLSQ [pACP1529]", "study system": "MCF7", "assay result": 1.00}
{"residue string": "NFWLSTLTGHGFCAVVSAARAGS [pACP1292]", "study system": "MCF7", "assay result": 0.79}
{"residue string": "NLTPPSRRATSPIFCVAKHRGGVCECPTIPQGIGEGVKGHSPFEVEG [pACP1349]", "study system": "MCF7", "assay result": 1.00}
{"residue string": "GNPAKQEIKVPGALGKGSCVQSGAGVGPRCRVPCGPLSGGMALFCYE [pACP555]", "study system": "MCF7", "assay result": 1.00}
{"residue string": "SPLKGGGLLPPAGFCPRRVLCRLPTGWKKGKPSGQMPLFRIWRKVMVMK [pACP1985]", "study system": "MCF7", "assay result": 0.19}
{"residue string": "NTGGIQKIQPLRKTDPLLAPCVSGRIGCPGRRCS [pACP1412]", "study system": "MCF7", "assay result": 1.00}
{"residue string": "NSFCRQTALCSVALGQYRTKIVRQMRRQIFRQMKQKAE [pACP1403]", "study system": "MCF7", "assay result": 1.00}
{"residue string": "SVGKRCKMGKNYKTVPALKGIPLAGGTYNTRNRSGSG [pACP2037]", "study system": "MCF7", "assay result": 1.00}
